Experiment: UV absorption properties (λmax, molar extinction coefficient ε, efficiency E 1%, 1 cm)
Format: physicochemical
Settings: Table 10; in M-1 cm-1
measurement_name: ε

For orientation, consider the following solved cases.
| compound | ε |
| --- | --- |
| Cc1nn(C)c(N2C=CC(C)(C)C=C2)c1C(=O)C(F)(F)F [drawing 153] | 10016 |
| Cc1ccc(N2C=CC(C)(C)C(C(=O)C(F)(F)F)=C2)cc1 [drawing 151] | 14911 |
| Cc1ccc(N2C=CC(C)(C)C=C2)cc1 | 31871 |
| CC1(C)C=CN(c2ccncc2)C=C1 | 18164 |

[I] Cc1ccc(N2C=CC(C)(C)CC2)cc1
[II] Cc1cc(N2C=CC(C)(C)C=C2)n(C)n1 [drawing 152]
Between the entries labelled I and II , which has a larger ε value on record? Respond with the label that goes with your answer.
I

* * *

Assay: UV absorption properties (λmax, molar extinction coefficient ε, efficiency E 1%, 1 cm)
Type: physicochemical
Settings: Table 8a
measurement_name: E (1%, 1 cm)

For orientation, consider the following solved cases.
| compound | E (1%, 1 cm) |
| --- | --- |
| CC1(C)C=CN(c2ccccc2)CC1 [drawing 121] | 1205 |
| C=CC(=O)C1=CN(c2ccccc2)CCC1(C)C [drawing 123] | 874 |
| CC1(C)C=CN(c2ccccc2)C=C1 [drawing 125] | 866 |
| COc1ccc(N2C=C(C(=O)c3ccc(F)cc3)C(C)(C)CC2)cc1 [drawing 129] | 571 |
| CCC(=O)C1=CN(c2ccc(OC)cc2)CCC1(C)C [drawing 127] | 862 |

[1] CCC(=O)C1=CN(c2ccccc2)CCC1(C)C [drawing 122]
[2] CC1(C)CCN(c2ccccc2)C=C1C(=O)c1ccc(Br)cc1 [drawing 124]
Please let me know which one, 1 or 2 , has a lower measured E (1%, 1 cm) value. Respond with the label that goes with your answer.
2
(2: 629, 1: 947)

* * *

Assay: UV absorption properties (λmax, molar extinction coefficient ε, efficiency E 1%, 1 cm)
Format: physicochemical
Conditions: Table 9, C3-trifluoroacetylated N-aryl enamines
measurement_name: λmax (nm)

| compound | value_unit | λmax |
| --- | --- | --- |
| COc1ccc(N2C=C(C(=O)C(F)(F)F)C(C)(C)CC2)cc1 [drawing 140] | nm | 339 |
| CC1(C)CCN(c2ccc(C(C)(C)C)cc2)C=C1C(=O)C(F)(F)F [drawing 139] | nm | 337 |
| CC1(C)CCN(c2cccc3ccccc23)C=C1C(=O)C(F)(F)F [drawing 143] | nm | 325 |
| CN(C)c1ccc(N2C=C(C(=O)C(F)(F)F)C(C)(C)CC2)cc1 [drawing 141] | nm | 354 |
| Cc1ccc(N2C=C(C(=O)C(F)(F)F)C(C)(C)CC2)cc1 [drawing 142] | nm | 337 |

* * *

Assay: UV absorption properties (λmax, molar extinction coefficient ε, efficiency E 1%, 1 cm)
Assay type: physicochemical
Conditions: Table 10, bis and mono enamine compounds
measurement_name: λmax (nm)

| compound | value_unit | λmax |
| --- | --- | --- |
| Cc1ccc(N2C=CC(C)(C)C(C(=O)C(F)(F)F)=C2)cc1 [drawing 151] | nm | 388 |
| Cc1ccc(N2C=CC(C)(C)CC2)cc1 | nm | 278 |
| Cc1nn(C)c(N2C=CC(C)(C)C=C2)c1C(=O)C(F)(F)F [drawing 153] | nm | 253 |
| CC1(C)C=CN(c2ccncc2)C=C1 | nm | 305 |
| Cc1cc(N2C=CC(C)(C)C=C2)n(C)n1 [drawing 152] | nm | 253 |
| Cc1ccc(N2C=CC(C)(C)C=C2)cc1 | nm | 283 |

* * *

Assay: UV absorption properties (λmax, molar extinction coefficient ε, efficiency E 1%, 1 cm)
Format: physicochemical
Conditions: values in order of the λmax values
measurement_name: ε (molar extinction coefficient) (M⁻¹ cm⁻¹)

For orientation, consider the following solved cases.
| smiles_string | value_unit | ε (molar extinction coefficient) |
| --- | --- | --- |
| CC(C)CN1C=C(C(=O)C(c2ccccc2)c2ccccc2)C(C)(C)CC1 | M⁻¹ cm⁻¹ | 26000 |
| CC1(C)CCN(C(C)(C)C)C=C1C(=O)C1=CN(C(C)(C)C)CCC1(C)C | M⁻¹ cm⁻¹ | 15425 |
| Cc1ccc(N2C=C(C(=O)Nc3ccccc3)C(C)(C)CC2)cc1 | M⁻¹ cm⁻¹ | 33948 |
| CC(C)CN1C=C(C(=O)c2ccc3c(c2)CCO3)C(C)(C)CC1 | M⁻¹ cm⁻¹ | 22000 |
| CC1(C)CCN(C(C)(C)C)C=C1C(=O)c1ccc(Br)cc1 | M⁻¹ cm⁻¹ | 27506 |

[a] Cc1ccc(N2C=C(C(=O)Nc3ccc(C)c(NC(=O)C4=CN(C(C)(C)C)CCC4(C)C)c3)C(C)(C)CC2)cc1
[b] COc1ccc(N2C=C(C(=O)Cc3ccccc3)C(C)(C)CC2)cc1
Between the entries labelled a and b , which has a larger ε (molar extinction coefficient) value on record? Respond with the label that goes with your answer.
a
(a: 51743 M⁻¹ cm⁻¹, b: 33786 M⁻¹ cm⁻¹)

* * *

Experiment: UV absorption properties (λmax, molar extinction coefficient ε, efficiency E 1%, 1 cm)
Type: physicochemical
Settings: Table 6A, N-isobutyl-C3-benzoyl compounds
measurement_name: λmax (nm)

| compound | measured |
| --- | --- |
| CC(C)CN1C=C(C(=O)c2ccc(-c3ccccc3)cc2)C(C)(C)CC1 [drawing 86] | 320 |
| CC(C)CN1C=C(C(=O)c2ccc3c(c2)CCO3)C(C)(C)CC1 [drawing 85] | 320 |
| CC(C)CN1C=C(C(=O)c2ccc(N(C)C)cc2)C(C)(C)CC1 [drawing 83] | 336 |
| COc1ccc(C(=O)C2=CN(CC(C)C)CCC2(C)C)c(OC)c1 [drawing 91] | 313 |
| CC(C)CN1C=C(C(=O)c2ccc(Br)cc2)C(C)(C)CC1 [drawing 84] | 318 |

* * *

Experiment: Critical wavelength (λcrit), approximate in-house measurement
Format: physicochemical
Details: Table 13B
measurement_name: λcrit (nm)

| molecule | value_unit | measured |
| --- | --- | --- |
| Cc1cc(/C=C/C(=O)C2=CN(C(C)(C)C)CCC2(C)C)c(C)cc1Br | nm | 386 |
| CCC(=O)C1=CN(c2ccc(N3C=C(C(=O)CC)C(C)(C)CC3)cc2)CCC1(C)C | nm | 377 |
| CCC(=O)C1=CN(c2ccc(-c3ccc(N4C=C(C(=O)CC)C(C)(C)CC4)c(C)c3)cc2C)CCC1(C)C | nm | 349 |
| CCCCCCC(=O)C1=CN(c2ccc(N3C=C(C(=O)CC(C)CCC=C(C)C)C(C)(C)CC3)cc2)CCC1(C)C (centres unmarked) | nm | 378 |
| CC(C)(C)CC(C)(C)N1C=C(C(=O)/C=C/c2ccc(Br)cc2)C(C)(C)CC1 | nm | 386 |
| CCCCC(CC)COC(=O)CCC(=O)C1=CN(c2ccc(N3C=C(C(=O)CCC(=O)OCC(CC)CCCC)C(C)(C)CC3)cc2)CCC1(C)C (centres unmarked) | nm | 379 |
| CCCCC(CC)CN(c1ccc(C(=O)C2=CN(C(C)(C)C)CCC2(C)C)cc1)c1ccc(C(=O)C2=CN(C(C)(C)C)CCC2(C)C)cc1.Cl (centres unmarked) | nm | 370 |
| CCC(=O)C1=CN(c2ccc(Oc3ccc(N4C=C(C(=O)CC)C(C)(C)CC4)cc3)cc2)CCC1(C)C | nm | 353 |

* * *

Assay: Critical wavelength (λcrit), approximate in-house measurement
Format: physicochemical
Settings: Table 13B
measurement_name: λcrit (nm)

| molecule | λcrit / nm |
| --- | --- |
| CC1(C)CCN(C(C)(C)C)C=C1C(=O)/C=C/c1c2ccccc2c(/C=C/C(=O)C2=CN(C(C)(C)C)CCC2(C)C)c2ccccc12 | 389 |
| CC(C)(C)CC(C)(C)N1C=C(C(=O)/C=C/c2ccc(/C=C/C(=O)Cl)cc2)C(C)(C)CC1 | 385 |
| CCOC(=O)c1cc(/C=C/C(=O)C2=CN(C(C)(C)C)CCC2(C)C)c(C(=O)OCC)cc1/C=C/C(=O)C1=CN(C(C)(C)C)CCC1(C)C | 388 |
| CCCCCCC(=O)C1=CN(c2ccc(N3C=C(C(=O)CCCCCC)C(C)(C)CC3)cc2)CCC1(C)C | 378 |
| CC(C)=CCCC(C)CC(=O)C1=CN(c2ccc(N3C=C(C(=O)CC(C)CCC=C(C)C)C(C)(C)CC3)cc2)CCC1(C)C (stereo not drawn) [drawing 212] | 379 |
| COC(=O)c1cc(Br)ccc1/C=C/C(=O)C1=CN(C(C)(C)C)CCC1(C)C | 386 |
| CCCCC(CC)COC(=O)c1cc(/C=C/C(=O)C2=CN(C(C)(C)C)CCC2(C)C)ccc1/C=C/C(=O)C1=CN(C(C)(C)C)CCC1(C)C (stereo not drawn) | 388 |
| CCOC(=O)C(=O)C1=CN(C(C)(C)C)CCC1(C)C | 344 |
| CC1(C)CCN(C(C)(C)C)C=C1C(=O)/C=C/c1ccc(/C=C/C(=O)C2=CN(C(C)(C)C)CCC2(C)C)cc1 | 390 |
| CC1(C)CCN(C(C)(C)C)C=C1C(=O)c1c(F)cccc1F | 331 |
| Cc1cc(C)c(C(=O)C2=CN(C(C)(C)C)CCC2(C)C)c(C)c1 | 326 |
| COC(=O)c1cc(/C=C/C(=O)C2=CN(C(C)(C)C)CCC2(C)C)ccc1/C=C/C(=O)C1=CN(C(C)(C)C)CCC1(C)C | 389 |
| CC(C)=CCCC(C)CC(=O)C1=CN(c2ccc(N3C=C(C(=O)CC(C)CCC=C(C)C)C(C)(C)CC3)cc2)CCC1(C)C (stereo not drawn) [drawing 213] | 378 |
| CCCCCCCCCC(=O)C1=CN(c2ccc(N3C=C(C(=O)CCCCCCCCC)C(C)(C)CC3)cc2)CCC1(C)C | 378 |
| CN1C=C(C(=O)c2ccc(N(C)CCCCCCN(C)c3ccc(C(=O)C4=CN(C(C)(C)C)CCC4(C)C)cc3)cc2)C(C)(C)CC1 | 364 |
| C=CC(=O)C1=CN(c2ccc(C)cc2)CCC1(C)C | 377 |
| CC(C)CN1C=C(C(=O)C(C)(C)C)C(C)(C)CC1 | 327 |
| Cc1ccc(NC(=O)C2=CN(C(C)(C)CC(C)(C)C)CCC2(C)C)cc1NC(=O)C1=CN(C(C)(C)CC(C)(C)C)CCC1(C)C | 328 |
| CC1(C)CCN(C(C)(C)C)C=C1C(=O)/C=C/c1ccc(C(=O)C2=CN(C(C)(C)C)CCC2(C)C)cc1 | 385 |
| CC1(C)CCN(C(C)(C)C)C=C1C(=O)N(CCCCN(C(=O)C1=CN(C(C)(C)C)CCC1(C)C)c1ccccc1)c1ccccc1 | 357 |
| CC1(C)CCN(C(C)(C)C)C=C1C(=O)/C=C/c1cccc(/C=C/C(=O)C2=CN(C(C)(C)C)CCC2(C)C)c1 | 386 |
| CC1(C)CCN(C(C)(C)C)C=C1C(=O)c1ccccc1 | 342 |
| CCCCNc1ccc(C(=O)C2=CN(C(C)(C)C)CCC2(C)C)cc1 | 360 |
| CC1(C)CCN(C(C)(C)C)C=C1C(=O)c1c(F)c(F)c(F)c(F)c1F | 333 |
| CCCOC(=O)CCC(=O)C1=CN(c2ccc(N3C=C(C(=O)CCC(=O)OCCC)C(C)(C)CC3)cc2)CCC1(C)C | 377 |
| CC1(C)CCN(C(C)(C)C)C=C1C(=O)c1ccc(C(F)(F)F)cc1 | 349 |
| CC1(C)CCN(c2ccccc2)C=C1C(=O)/C=C/c1ccc(/C=C/C(=O)C2=CN(c3ccccc3)CCC2(C)C)cc1 | 390 |
| Cc1ccc(N2C=C(C(=O)N(CCCCN(C(=O)C3=CN(c4ccc(C)cc4)CCC3(C)C)c3ccccc3)c3ccccc3)C(C)(C)CC2)cc1 | 346 |
| CC1(C)CCN(C(C)(C)C)C=C1C(=O)N(Cc1ccc(CN(C(=O)C2=CN(C(C)(C)C)CCC2(C)C)c2ccccc2)cc1)c1ccccc1 | 365 |
| CC1(C)CCN(C(C)(C)C)C=C1C(=O)/C=C/c1ccc(/C=C/C(=O)C2=CN(C(C)(C)C)CCC2(C)C)c([N+](=O)[O-])c1 | 388 |
| Cc1cc(/C=C/C(=O)C2=CN(C(C)(C)C)CCC2(C)C)c(C)cc1/C=C/C(=O)C1=CN(C(C)(C)C)CCC1(C)C | 390 |
| CCCN(CCC)c1ccc(C(=O)C2=CN(C(C)(C)C)CCC2(C)C)cc1 | 365 |
| CC1(C)CCN(c2ccc(N3C=C(C(=O)CCC(F)(F)F)C(C)(C)CC3)cc2)C=C1C(=O)CCC(F)(F)F | 379 |
